I'd be grateful if you could share measured EC50 for these entries.
experimentalSystem: T1, human PD-L1-Fc protein (human, UniProt Q9NZQ7 19-238)
T1 construct: coating antigen of the ELISAs; also called rhPD-L1-Fc; not shown: Fc
T1 sequence (Q9NZQ7 19-238 limits assumed): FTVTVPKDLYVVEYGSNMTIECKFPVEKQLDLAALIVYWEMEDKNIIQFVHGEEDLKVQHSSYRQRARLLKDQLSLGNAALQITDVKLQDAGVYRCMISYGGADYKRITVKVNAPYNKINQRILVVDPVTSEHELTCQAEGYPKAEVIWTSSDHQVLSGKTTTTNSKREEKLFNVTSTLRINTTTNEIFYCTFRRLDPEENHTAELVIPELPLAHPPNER
procedureDetails: ELISA, antibody titrated on coated human PD-L1-Fc, OD 450nm; lower left panel; the table row is headed 'IC50' on the sheet although the curves rise
A number alone suffices; assume µg/mL.

Entry Hu67F3G7-13 (antibody, V domains shown, humanized) VH: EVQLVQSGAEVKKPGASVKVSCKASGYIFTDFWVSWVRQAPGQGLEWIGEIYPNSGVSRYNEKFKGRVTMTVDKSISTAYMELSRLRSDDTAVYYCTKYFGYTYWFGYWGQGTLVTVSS VL: DTVLTQSPSSLSASVGDRVTITCRASKSVSTYMHWYQQKPGKQPKLLIYSASHLESGVPSRFSGSGSGTDFTLTISSLQPEDFATYYCQQSNELPVTFGGGTKVEIK ; EC50 = 0.0102

Entry Hu67F3G7-14 (antibody, V domains shown, humanized) VH: EVQLVQSGAEVKKPGASVKVSCKASGYIFTDFWVSWVRQAPGQGLEWIGEIYPNSGVSRYNEKFKGRVTMTVDKSISTAYMELSRLRSDDTAVYYCARYFGYTYWFGYWGQGTLVTVSS VL: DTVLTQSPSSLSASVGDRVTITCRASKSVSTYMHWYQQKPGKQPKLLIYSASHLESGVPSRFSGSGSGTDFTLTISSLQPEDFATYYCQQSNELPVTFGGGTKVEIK ; EC50 = 0.0144

Entry Hu67F3G7-18 (antibody, V domains shown, humanized) VH: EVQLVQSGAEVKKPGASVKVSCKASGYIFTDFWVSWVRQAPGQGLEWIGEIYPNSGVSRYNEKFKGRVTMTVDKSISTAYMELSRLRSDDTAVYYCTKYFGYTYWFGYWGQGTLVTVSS VL: DTVLTQSPSLSASVGDRVTITCRASKSVSTYMHWYQQKPGKQPKLLIYSASHLESGVPSRFSGSGSGTDFTLTISSLQPEDFATYYCQQSNELPVTFGGGTKVEIK ; EC50 = 0.014
